Kindly supply the reported kon values for the records listed here.
Target: T1, cynoNectin4-mFc (cyno, UniProt A0A2K5WES1 32-349)
T1 construct: Immobilized on the SPR chip; also called cyanoNectin4; not shown: mFc (mouse Fc)
T1 sequence: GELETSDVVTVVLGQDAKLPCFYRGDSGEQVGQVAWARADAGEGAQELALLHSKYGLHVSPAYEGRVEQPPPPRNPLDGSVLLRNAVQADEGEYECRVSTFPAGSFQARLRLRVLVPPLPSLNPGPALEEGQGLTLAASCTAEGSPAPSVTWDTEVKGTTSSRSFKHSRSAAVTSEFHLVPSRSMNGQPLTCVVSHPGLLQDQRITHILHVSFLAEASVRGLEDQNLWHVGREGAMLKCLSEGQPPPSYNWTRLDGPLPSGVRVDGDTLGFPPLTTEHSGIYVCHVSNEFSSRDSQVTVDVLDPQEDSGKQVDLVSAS
Assay: SPR, cynoNectin4-mFc immobilized, pH 6.5
Kindly write the number and append the unit.

Which kon value is on record for BAP-143-00-03 (antibody, V domains shown, Used as a conjugate with a linker payload (CAB ADC)) VH: EVQLVESGGGLVQPGGSLRLSCAASGFTFSSYNMNWVRQAPGKGLEWVSYISSSSSTIYYADSVKGRFTISRDNAKNSLSLQMNSLRDEDTAVYYCARAYYYGMDVWGQGTTVTVSS VL: DIQMTQSPSSVSASVGDRVTITCRASQGISGWLAWYQQKPGKAPKFLIYAASTLQSGVPSRFSGSGSGTDFTLTISSLQPEDFATYYCQQANSFPDTFGGGTKVEIK ?
668000 M⁻¹ s⁻¹

Which kon value is on record for BAP-143-00-01 (antibody, V domains shown, Used as a conjugate with a linker payload (CAB ADC)) VH: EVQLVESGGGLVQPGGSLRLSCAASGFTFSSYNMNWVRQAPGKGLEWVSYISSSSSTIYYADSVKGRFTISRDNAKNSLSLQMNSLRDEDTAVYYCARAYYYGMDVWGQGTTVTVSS VL: DIQMTQSPSSVSASVGDRVTITCRASQGISGWEAWYQQKPGKAPKFLIYAASTLQSGVPSRFSGSGSGTDFTLTISSLQPEDFATYYCQQANSFPPTFGGGTKVEIK ?
457000 M⁻¹ s⁻¹

Which kon value is on record for BAP-143-00-05 (antibody, V domains shown, Used as a conjugate with a linker payload (CAB ADC)) VH: EVQLVESGGGLVQPGGSLRLSCAASGFTFSSYNMNWVRQAPGKGLEWVSYISSSSSTIYYADSVKGRFTISRDNAKNSLSLQMNSLRDEDTAVYYCAEAYYYGMDVWGQGTTVTVSS VL: DIQMTQSPSSVSASVGDRVTITCRASQGISGWLAWYQQKPGKAPKFLIYAASTLQSGVPSRFSGSGSGTDFTLTISSLQPEDFATYYCQQANSFPPTFGGGTKVEIK ?
599000 M⁻¹ s⁻¹
